Target: endogenous renin in human plasma (Homo sapiens)
Construct: incubation (37° C.) of the endogenous renin and angiotensinogen in plasma at pH 6.0; from tissue; host or cells: pooled human plasma (EDTA) from male volunteers
Sequence (P00797 67-406): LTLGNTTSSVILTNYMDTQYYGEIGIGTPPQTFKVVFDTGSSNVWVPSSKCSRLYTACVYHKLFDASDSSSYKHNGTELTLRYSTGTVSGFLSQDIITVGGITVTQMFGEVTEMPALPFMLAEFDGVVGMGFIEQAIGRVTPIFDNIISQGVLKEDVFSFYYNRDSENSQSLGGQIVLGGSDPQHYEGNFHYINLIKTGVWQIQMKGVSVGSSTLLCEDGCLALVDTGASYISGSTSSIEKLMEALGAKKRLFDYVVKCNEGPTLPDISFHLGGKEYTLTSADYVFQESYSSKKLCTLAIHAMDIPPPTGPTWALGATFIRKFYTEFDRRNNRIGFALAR
Test: Test 1: inhibition of human plasma renin activity (Ang I formation, RIA)
Format: biochemical
Conditions: human plasma pool, pH 6.0, 37° C., 90 minutes incubation, Probit method; read-out: IC50 (concentration that inhibited plasma renin activity by 50%)
Consider the following compounds; for each one, report its pIC50.
FYI, pIC50 means -log10 of a concentration in mol per litre.

Can you share its pIC50? I mean this compound: CC(C)CC[C@H](O)[C@H](CC1CCCCC1)NC(=O)[C@H](Cc1c[nH]cn1)NC(=O)[C@H](Cc1ccccc1)NC(=O)N1CCOCC1 [Test Compound (a)] 7.21

Now the same for CC(C)CC[C@H](O)[C@H](CC1CCCCC1)NC(=O)[C@H](Cc1c[nH]cn1)N(C)C(=O)[C@H](Cc1ccccc1)NC(=O)N1CCOCC1 [Test Compound (b)] 7.68

// query: CC(C)CC[C@H](O)[C@H](CC1CCCCC1)NC(=O)[C@H](Cc1c[nH]cn1)N(C)C(=O)[C@H](Cc1ccccc1)NC(=O)N1CCSCC1 [Test Compound (c)] 7.62

One more compound: CC(C)CC[C@H](O)[C@H](CC1CCCCC1)NC(=O)[C@H](Cc1c[nH]cn1)N(C)C(=O)[C@H](Cc1ccccc1)NC(=O)N1CCc2ccccc2C1 [Test Compound (d)] 7.22

The measured values listed here are drawn from patent US4963530A.
